- Test system: Klebsiella pneumoniae
- Condition Notes: Concentration 32 ug.mL-1; ASSAY_TEST Inhibition of Bacterial Growth; detection method Absorption (OD600); MEDIA CAMHB; plate type 384well; NBS; CORNING #3640; time 18 hr
- Description: Antibacterial activity against Klebsiella pneumoniae MDR ATCC 70063 (CO-ADD:GN_003); MIC in CAMBH media using NBS plates, by OD(600)
Entries with a potency or affinity are not part of this list.
Some molecules, each annotated with its measured Inhibition.
Entry rule: numbers only, all in %.

[
  {
    "Molecule": "CC(=O)O[C@H]1C[C@@]2(C)C(C[C@@H](O)C3[C@@]4(C)CC[C@@H](OC(=O)c5ccccc5C(=O)OCCc5ccc(OCCO[N+](=O)[O-])cc5)[C@@H](C)C4CC[C@@]32C)/C1=C(\\CCC=C(C)C)C(=O)OCc1ccccc1 (stereo partly specified)",
    "Measurement Kind": "Inhibition",
    "Result Units": "%",
    "Value": 4.99
  },
  {
    "Molecule": "CC(=O)O[C@H]1C[C@@]2(C)C(C[C@@H](O)C3[C@@]4(C)CC[C@@H](OC(=O)CO[N+](=O)[O-])[C@@H](C)C4CC[C@@]32C)/C1=C(\\CCC=C(C)C)C(=O)OCc1ccccc1 (stereo partly specified)",
    "Measurement Kind": "Inhibition",
    "Result Units": "%",
    "Value": 17.67
  },
  {
    "Molecule": "CC(=O)O[C@H]1C[C@@]2(C)C(C[C@@H](O)C3[C@@]4(C)CC[C@@H](OC(=O)C(N)CC(C)C)[C@@H](C)C4CC[C@@]32C)/C1=C(\\CCC=C(C)C)C(=O)OCc1ccccc1 (stereo partly specified)",
    "Measurement Kind": "Inhibition",
    "Result Units": "%",
    "Value": 5.15
  },
  {
    "Molecule": "CC(=O)O[C@H]1C[C@@]2(C)C(C[C@@H](O)C3[C@@]4(C)CC[C@@H](OC(=O)CCCCCO[N+](=O)[O-])[C@@H](C)C4CC[C@@]32C)/C1=C(\\CCC=C(C)C)C(=O)OCc1ccccc1 (stereo partly specified)",
    "Measurement Kind": "Inhibition",
    "Result Units": "%",
    "Value": -0.98
  },
  {
    "Molecule": "CC(=O)O[C@H]1C[C@@]2(C)C(C[C@@H](O)C3[C@@]4(C)CC[C@@H](OC(=O)c5ccccc5C(=O)Nc5cccc(N)c5)[C@@H](C)C4CC[C@@]32C)/C1=C(\\CCC=C(C)C)C(=O)OCc1ccccc1 (stereo partly specified)",
    "Measurement Kind": "Inhibition",
    "Result Units": "%",
    "Value": 1.34
  }
]

Form field Inhibition, entry CC(=O)O[C@H]1C[C@@]2(C)C(C[C@@H](O)C3[C@@]4(C)CC[C@@H](O)[C@@H](C)C4CC[C@@]32C)/C1=C(\CCC=C(C)C)C(=O)On1nnc2ccccc21 (stereo partly specified) : -4.91

Summary for this molecule, CC(=O)O[C@H]1C[C@@]2(C)C(C[C@@H](O)C3[C@@]4(C)CC[C@@H](OC(=O)C(N)C(C)C)[C@@H](C)C4CC[C@@]32C)/C1=C(\CCC=C(C)C)C(=O)OCc1ccccc1 (stereo partly specified) : Inhibition is 18.28

get_value(item= CC(=O)O[C@H]1C[C@@]2(C)C(CC(=O)C3[C@@]4(C)CC[C@@H](OC(=O)CCCCO[N+](=O)[O-])[C@@H](C)C4CC[C@@]32C)/C1=C(\CCC=C(C)C)C(=O)OCc1ccccc1 (stereo partly specified) , readout=Inhibition) returns 10.79

Inhibition reported for this molecule CC(=O)O[C@H]1C[C@@]2(C)C(CC(=O)C3[C@@]4(C)CCC(=O)[C@@H](C)C4CC[C@@]32C)/C1=C(\CCC=C(C)C)C(=O)OCc1ccccc1 (stereo partly specified) : 19.97

Item: CC(=O)O[C@H]1C[C@@]2(C)C(C[C@@H](O)C3[C@@]4(C)CC[C@@H](OC(=O)CCC(=O)Oc5ccc(CCO[N+](=O)[O-])cc5)[C@@H](C)C4CC[C@@]32C)/C1=C(\CCC=C(C)C)C(=O)OCc1ccccc1 (stereo partly specified) | Inhibition: -3.54

GET /value?item= CC(=O)O[C@H]1C[C@@]2(C)C(C[C@@H](O)C3[C@@]4(C)CC[C@@H](O)[C@@H](C)C4CC[C@@]32C)/C1=C(\CCC=C(C)C)C(=O)OCc1ccccc1 (stereo partly specified) &field=Inhibition returns 15.54
